system: Cytochrome P450 2C19 (Homo sapiens)
Sequence (P33261 whole entry): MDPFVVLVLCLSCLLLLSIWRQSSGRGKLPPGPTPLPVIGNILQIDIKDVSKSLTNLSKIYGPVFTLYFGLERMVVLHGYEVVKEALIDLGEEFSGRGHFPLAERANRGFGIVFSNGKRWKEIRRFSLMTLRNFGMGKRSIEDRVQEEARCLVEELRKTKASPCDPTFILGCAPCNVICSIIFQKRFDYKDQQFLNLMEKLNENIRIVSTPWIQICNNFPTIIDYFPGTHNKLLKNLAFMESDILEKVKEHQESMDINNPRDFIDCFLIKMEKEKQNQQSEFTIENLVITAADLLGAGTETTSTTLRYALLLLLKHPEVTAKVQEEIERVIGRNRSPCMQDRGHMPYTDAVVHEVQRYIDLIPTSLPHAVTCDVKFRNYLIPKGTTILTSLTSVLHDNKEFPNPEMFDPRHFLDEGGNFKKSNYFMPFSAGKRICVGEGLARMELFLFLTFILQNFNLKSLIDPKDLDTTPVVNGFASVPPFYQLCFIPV
assay: Cytochrome panel assay with activity outcomes. Panel member name: p450-cyp2c19 Compounds with AC50 equal or less than 10 uM are considered active
Type: functional
condition_set: read-out: AC50
metric_name: AC50

Below, 3 compounds whose answers are already recorded.
CN(C)C(=O)CCc1nc(-c2ccc(C(C)(C)C)cc2)no1    22.4 µM (inconclusive)
FC(F)(F)c1ccccc1-c1cncnc1NCCN1CCOCC1    20 µM (inconclusive)
CCNc1nc(NCC)nc(ON=C(C)C)n1    17.8 µM (inconclusive)

Which AC50 reading was recorded for the compound CN(C)CC(C)(C)CN1c2ccccc2Sc2ccccc21 ? 2 µM (inconclusive)

Would you kindly repeat that for CCCCCSc1nnc(C)c(O)n1 ? 39.8 µM (inconclusive)

Would you kindly repeat that for Cc1ccc(-c2nc3ccccc3o2)cc1NC(=O)Cc1cccs1 ? 15.8 µM (inconclusive)

Would you kindly repeat that for COc1ccc(C(=O)Nc2cccc(-c3cnc4ccccc4n3)c2)cc1 ? 2.24 µM (inconclusive)

Would you kindly repeat that for CC(=O)NCc1c(Cl)cccc1-n1cccc1 ? 11.2 µM (inconclusive)

Would you kindly repeat that for CCc1ccc(N2CC(C(=O)N/N=C/c3cccc([N+](=O)[O-])c3)CC2=O)cc1 (configuration not stated) ? 0.316 µM (inconclusive)

Would you kindly repeat that for Cc1cccc(C(=O)NN(C)c2nc(-c3ccccc3)nnc2C(F)(F)F)c1 ? 0.708 µM (inconclusive)

Would you kindly repeat that for COc1cccc(-c2ccc3ncnc(N4CCN(C)CC4)c3c2)c1 ? 31.6 µM (inconclusive)

Would you kindly repeat that for Cc1ccc(C)c(NC(=O)C2CC(O)CN2C(=O)OC(C)(C)C)c1 (configuration not stated) ? 28.2 µM (inconclusive)

====

The entries below are paired with their reported IC50.
system: Glucose-6-phosphate 1-dehydrogenase (Homo sapiens)
Sequence (P11413 whole entry): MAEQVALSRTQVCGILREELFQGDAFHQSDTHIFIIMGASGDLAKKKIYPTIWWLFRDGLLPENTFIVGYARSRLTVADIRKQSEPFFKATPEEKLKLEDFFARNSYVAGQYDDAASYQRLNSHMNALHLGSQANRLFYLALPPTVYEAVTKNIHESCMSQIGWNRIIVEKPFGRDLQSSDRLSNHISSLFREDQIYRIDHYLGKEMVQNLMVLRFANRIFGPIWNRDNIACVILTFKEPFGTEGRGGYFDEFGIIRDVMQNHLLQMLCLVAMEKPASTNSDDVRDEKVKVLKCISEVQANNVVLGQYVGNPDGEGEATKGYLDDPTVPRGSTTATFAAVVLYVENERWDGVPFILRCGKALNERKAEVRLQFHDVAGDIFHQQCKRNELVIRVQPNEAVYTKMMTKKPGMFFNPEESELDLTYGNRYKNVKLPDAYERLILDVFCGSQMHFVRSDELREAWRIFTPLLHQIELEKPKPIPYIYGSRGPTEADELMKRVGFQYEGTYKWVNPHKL
assay: human G6PD enzyme inhibitors, dose response, selectivity assay for P. falciparum G6PD inhibitor project, biochemical, fluorescence (AID 504792)
Assay type: functional
Calls of active or inactive are those of the source.

Below, 3 molecules whose answers are already recorded.
Cc1nc2ccc(Nc3nc4cc(S(=O)(=O)N5CCOCC5)ccc4o3)cc2s1    > 80 µM (inactive)
CC1=C(C)C[S+]([O-])N(S(=O)(=O)c2ccc(Cl)cc2)C1 (stereo unspecified)    > 80 µM (inactive)
CNS(=O)(=O)c1ccc(-c2ccc(C=C3C(=O)NC(=O)NC3=O)o2)cc1    51.2 µM (inactive)

Which IC50 reading was recorded for the molecule CCOC(=O)c1c(C)n(-c2ccc(C)cc2)c2c(C(C(C)=O)C(=O)O)c(Br)c(O)c(O)c12 (stereo unspecified) ? 26.5 µM (inactive)

Would you kindly repeat that for CSc1nnc(NC(=O)c2ccc3c(c2)OCO3)s1 ? 22.5 µM (inactive)

Would you kindly repeat that for CCOC(=O)c1c2ccc(OCC(=O)NN)cc2n2ccccc12 ? 62.8 µM (inactive)

====

system: Methionyl-tRNA synthetase, putative (Trypanosoma brucei brucei, UniProt Q38C91)
Sequence (Q38C91 whole entry): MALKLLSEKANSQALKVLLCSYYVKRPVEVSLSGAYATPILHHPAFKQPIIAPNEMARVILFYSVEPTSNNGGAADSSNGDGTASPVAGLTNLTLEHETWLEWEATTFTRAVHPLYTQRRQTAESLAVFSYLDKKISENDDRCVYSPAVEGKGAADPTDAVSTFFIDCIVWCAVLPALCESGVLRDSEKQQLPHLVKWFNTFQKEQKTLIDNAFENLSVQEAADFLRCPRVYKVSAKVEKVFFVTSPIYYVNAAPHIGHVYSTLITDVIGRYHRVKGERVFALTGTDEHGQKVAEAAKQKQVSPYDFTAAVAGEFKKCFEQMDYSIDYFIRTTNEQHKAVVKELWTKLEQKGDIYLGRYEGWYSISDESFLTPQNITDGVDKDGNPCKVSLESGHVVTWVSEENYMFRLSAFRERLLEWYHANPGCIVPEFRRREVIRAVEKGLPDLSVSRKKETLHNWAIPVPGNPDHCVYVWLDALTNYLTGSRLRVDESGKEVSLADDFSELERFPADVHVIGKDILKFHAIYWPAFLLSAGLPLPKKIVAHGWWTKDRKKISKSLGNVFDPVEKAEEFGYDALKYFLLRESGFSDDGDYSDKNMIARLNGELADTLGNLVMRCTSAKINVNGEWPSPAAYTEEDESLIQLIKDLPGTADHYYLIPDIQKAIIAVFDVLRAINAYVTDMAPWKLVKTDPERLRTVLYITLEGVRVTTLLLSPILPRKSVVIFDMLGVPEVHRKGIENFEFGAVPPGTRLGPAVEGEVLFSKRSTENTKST
Type: functional, Trypanosoma brucei brucei strain 927/4 GUTat10.1
Active and inactive are the calls of the source.
The entries below are paired with their reported IC50.

Below, 6 compounds whose answers are already recorded.
Brc1c[nH]c2nc(SCc3nc4ccccc4[nH]3)nc-2c1    4.23 µM (active)
O=C(NCCc1nc2ccccc2[nH]1)c1ccc(Cl)c([N+](=O)[O-])c1    0.17 µM (active)
Clc1ccc2[nH]c3c(NCCCN4CCOCC4)ncnc3c2c1    9.1 µM (active)
Cc1ccc(CNC(=O)CSc2n[nH]c3c4cc(F)ccc4nc-3n2)cc1    0.785 µM (active)
CCN1C(=O)C(CC(=O)Nc2ccc(OC)cc2)N(CCc2ccc(F)cc2)C1=S (configuration not stated)    6.2 µM (active)
OC(c1cc(F)cc(Cl)c1)c1nc(-c2ccc(Cl)cc2)c[nH]1 (configuration not stated)    6.73 µM (active)

Now turn to the next compound.
Which IC50 reading was recorded for the compound CC(C)(C)[C@H]1C=C(C(=O)NCc2nc3ccccc3[nH]2)O[C@@H](OCCCCO)C1 ? 2.63 µM (active)
